- Tested on: 184B5
- Experimental Details: SRB antiproliferative assay, 184B5 non-cancer breast cells
- Type: cell-based, human
- Particulars: Homo sapiens; SRB, 48 h incubation, 184B5 non-cancer immortalised breast cells; read-out: GI50 184B5
- Procedure: The human breast cancer cell lines MDA-MB468, MDA-MB231 and MCF-7 were purchased from ATCC and maintained in RPMI 1640 medium supplemented with 10% fetal bovine serum (Hyclone, Logan UT) and 2 mM L-glutamine. […] Cell cytotoxic effects were determined by a SRB-based protocol[2]^,[25]. […] We further assessed their antiproliferative effects on two non-cancer immortalised cell lines (184B5 and MCF10A). […]
Observable: GI50 (µM)
Respond with the bare value in µM.

GI50 recorded for this compound, FC(F)(F)c1ccc(NC(=S)N2CCN(c3ccnc4cc(Cl)ccc34)CC2)cc1 [Compound 19] , is 3.7

GI50 recorded for this compound, S=C(NCCN1CCOCC1)N1CCN(c2ccnc3cc(Cl)ccc23)CC1 [Compound 23] , is 34.4

GI50 recorded for this compound, S=C(Nc1c(Cl)cc(Cl)cc1Cl)N1CCN(c2ccnc3cc(Cl)ccc23)CC1 [Compound 21] , is 4.7

GI50 recorded for this compound, Cc1cccc(C)c1NC(=S)N1CCN(c2ccnc3cc(C(F)(F)F)ccc23)CC1 [Compound 25] , is 21.4

GI50 recorded for this compound, S=C(Nc1ccc(Cl)cc1)N1CCN(c2ccnc3cc(Cl)ccc23)CC1 [Compound 20] , is 14.4

---

Observable: melting point

melting point recorded for this compound, S=C(Nc1ccc(Cl)cc1)N1CCN(c2ccnc3cc(Cl)ccc23)CC1 , is 145 to 146 °C

melting point recorded for this compound, O=C(Nc1ccc(C(F)(F)F)cc1)N1CCN(c2ccnc3cc(C(F)(F)F)ccc23)CC1 , is 154 to 155 °C

melting point recorded for this compound, O=C(Nc1cccc2ccccc12)N1CCN(c2ccnc3cc(C(F)(F)F)ccc23)CC1 , is 127 to 128 °C

melting point recorded for this compound, Cc1cccc(C)c1NC(=S)N1CCN(c2ccnc3cc(C(F)(F)F)ccc23)CC1 , is 105 to 106 °C

melting point recorded for this compound, FC(F)(F)c1ccc2c(N3CCN(C(=S)Nc4cccc5ccccc45)CC3)ccnc2c1 , is 137 to 138 °C

melting point recorded for this compound, Cc1cccc(C)c1NC(=S)N1CCN(c2ccnc3cc(Cl)ccc23)CC1 , is 138 to 139 °C

melting point recorded for this compound, FC(F)(F)c1ccc(NC(=S)N2CCN(c3ccnc4cc(Cl)ccc34)CC2)cc1 , is 112 to 113 °C

melting point recorded for this compound, Cc1ccc(C)c(NC(=O)N2CCN(c3ccnc4cc(C(F)(F)F)ccc34)CC2)c1 , is 108 to 109 °C

melting point recorded for this compound, FC(F)(F)c1ccc2c(N3CCN(C(=S)Nc4ccc(Cl)cc4)CC3)ccnc2c1 , is 165 to 166 °C

melting point recorded for this compound, S=C(Nc1cccc2ccccc12)N1CCN(c2ccnc3cc(Cl)ccc23)CC1 , is 107 to 108 °C

melting point recorded for this compound, S=C(NCCN1CCOCC1)N1CCN(c2ccnc3cc(Cl)ccc23)CC1 , is 114 to 115 °C

melting point recorded for this compound, O=C(Nc1ccccc1)N1CCN(c2ccnc3cc(C(F)(F)F)ccc23)CC1 , is 146 to 147 °C

melting point recorded for this compound, O=C(NC1CCCCC1)N1CCN(c2ccnc3cc(C(F)(F)F)ccc23)CC1 , is 132 to 133 °C

melting point recorded for this compound, FC(F)(F)c1ccc2c(N3CCN(C(=S)Nc4ccccc4)CC3)ccnc2c1 , is 187 to 188 °C

melting point recorded for this compound, O=C(Nc1cccc2ccccc12)N1CCN(c2ccnc3cc(Cl)ccc23)CC1 , is 138 to 139 °C
